We begin with a simple list: items and their reported TGI.
- System: M19-MEL melanoma
- measurement-description: NCI tumour cell line growth inhibition, 48 h

[[record]]
compound = "COc1ccccc1NC(=O)CC(=O)n1nc(-c2ccccc2)c(N=Nc2ccccc2[N+](=O)[O-])c1-c1ccccc1"
tested_target = "M19-MEL melanoma"
result = "> 100 µM"

[[record]]
compound = "Cc1nn2c(=O)n(-c3cccc(-n4nnc5c(-c6ccccc6)c(C)nn5c4=O)c3C)nnc2c1-c1ccccc1"
tested_target = "M19-MEL melanoma"
result = "> 100 µM"

[[record]]
compound = "[CH3][Sn]([CH3])([CH3])[O]C(=O)C(O)c1ccccc1 (stereo unspecified)"
tested_target = "M19-MEL melanoma"
result = "9.6 µM"

[[record]]
compound = "NC(=O)c1ccccc1NC(=O)C(=O)Nc1n[nH]c(N)n1"
tested_target = "M19-MEL melanoma"
result = "> 100 µM"


Input: Query the reported TGI for M19-MEL melanoma; item: O=C1C=CC(=O)c2c1cc1ccccc1c2O
Output: 11.3 µM

Input: Query the reported TGI for M19-MEL melanoma; item: CC(C)(C)c1cc(Oc2ccc(C#N)c(C#N)c2)cc(C(C)(C)C)c1
Output: > 100 µM

// data source = PubChem BioAssay (NCI)
